target: Retinoic acid receptor RXR-alpha/oxysterols receptor LXR-alpha (Homo sapiens); test: Binding affinity to LXRalpha-RXRalpha heterodimer (unknown origin) expressed in insect cells by scintillation proximity assay
Sequence (P19793 whole entry): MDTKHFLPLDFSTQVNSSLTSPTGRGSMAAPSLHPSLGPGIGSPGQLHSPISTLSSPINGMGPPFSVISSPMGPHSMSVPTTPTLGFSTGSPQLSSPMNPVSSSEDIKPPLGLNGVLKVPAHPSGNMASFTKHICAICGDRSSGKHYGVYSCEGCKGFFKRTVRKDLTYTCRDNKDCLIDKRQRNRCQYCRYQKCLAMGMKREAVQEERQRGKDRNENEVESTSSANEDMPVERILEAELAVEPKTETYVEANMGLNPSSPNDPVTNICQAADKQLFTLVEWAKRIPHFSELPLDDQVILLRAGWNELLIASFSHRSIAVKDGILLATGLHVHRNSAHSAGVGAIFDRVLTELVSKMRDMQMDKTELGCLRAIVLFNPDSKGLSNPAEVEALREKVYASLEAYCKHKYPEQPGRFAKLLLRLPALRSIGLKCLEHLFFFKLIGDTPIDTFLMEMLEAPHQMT
Sequence (Q13133 whole entry): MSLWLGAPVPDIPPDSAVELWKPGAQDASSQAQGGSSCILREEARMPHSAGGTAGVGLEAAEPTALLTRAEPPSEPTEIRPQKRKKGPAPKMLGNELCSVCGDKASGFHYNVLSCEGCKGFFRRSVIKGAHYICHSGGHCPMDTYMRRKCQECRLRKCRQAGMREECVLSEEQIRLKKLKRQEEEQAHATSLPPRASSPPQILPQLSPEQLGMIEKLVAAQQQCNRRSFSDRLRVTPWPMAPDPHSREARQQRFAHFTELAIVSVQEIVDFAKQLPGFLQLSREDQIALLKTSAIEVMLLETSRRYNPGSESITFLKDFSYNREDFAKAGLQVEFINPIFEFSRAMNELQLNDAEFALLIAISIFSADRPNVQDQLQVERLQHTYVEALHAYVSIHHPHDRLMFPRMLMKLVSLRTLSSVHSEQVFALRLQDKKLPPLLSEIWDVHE
MEASURED ENDPOINT: log10 Ki (log10 of the value in nM)
The common logarithm of Ki in nM is what is listed.

CC(C)(O)c1cc(-c2ccc(-c3cccc(S(C)(=O)=O)c3)s2)n(-c2ccccc2Cl)n1 = 3.18
CS(=O)(=O)c1cccc(-c2ccc(-n3cc(C(F)(F)F)nc3-c3ccccc3Cl)cc2)c1 = 1.79
CS(=O)(=O)c1cccc(-c2ccc(-c3cc(C(F)(F)F)nn3Cc3ccc(F)cc3F)s2)c1 = 1.30

Which log10 Ki is reported for this compound? COC(=O)c1cc(-c2ccc(-c3cccc(S(C)(=O)=O)c3)s2)n(-c2ccccc2Cl)n1
2.18

Give the measured log10 Ki of CC(C)(O)c1cn(-c2ccc(-c3cccc(S(C)(=O)=O)c3)cc2)c(Cc2ccccc2C(F)(F)F)n1 .
1.82

I would be grateful if you could share the reported log10 Ki for CC(C)(O)c1cn(-c2ccc(-c3cccc(S(C)(=O)=O)c3)cc2)c(Cc2ccccc2Cl)n1 .
1.40

Sample Cc1cc(CC(=O)O)ccc1-c1ccc(-c2cc(C(F)(F)F)c(C#N)c(=O)n2Cc2ccc(F)cc2F)s1 — what was its log10 Ki?
1.56

I would be grateful if you could share the reported log10 Ki for CC(C)(O)c1cn(-c2ccc(-c3cccc(S(C)(=O)=O)c3)cc2)c(C(C)(C)c2ccccc2Cl)n1 .
1.83

# query: log10 Ki of entry CS(=O)(=O)c1cccc(-c2ccc(-c3cc(C(F)(F)F)nn3-c3ccccc3Cl)cc2)c1
2.26

// query log10 Ki value for entry CS(=O)(=O)c1cccc(-c2cccc(-c3cc(C(F)(F)F)nn3-c3ccccc3Cl)c2)c1
2.48

Name the reported log10 Ki value associated with the compound CS(=O)(=O)c1cccc(-c2ccc(-c3cc(C(F)(F)F)c(C#N)c(=O)n3Cc3ccc(F)cc3F)s2)c1
1.04
